# ASSAY SYSTEM: nSMase2 (Homo sapiens (Human))
# Sequence (Q9NY59 whole entry, species assumed): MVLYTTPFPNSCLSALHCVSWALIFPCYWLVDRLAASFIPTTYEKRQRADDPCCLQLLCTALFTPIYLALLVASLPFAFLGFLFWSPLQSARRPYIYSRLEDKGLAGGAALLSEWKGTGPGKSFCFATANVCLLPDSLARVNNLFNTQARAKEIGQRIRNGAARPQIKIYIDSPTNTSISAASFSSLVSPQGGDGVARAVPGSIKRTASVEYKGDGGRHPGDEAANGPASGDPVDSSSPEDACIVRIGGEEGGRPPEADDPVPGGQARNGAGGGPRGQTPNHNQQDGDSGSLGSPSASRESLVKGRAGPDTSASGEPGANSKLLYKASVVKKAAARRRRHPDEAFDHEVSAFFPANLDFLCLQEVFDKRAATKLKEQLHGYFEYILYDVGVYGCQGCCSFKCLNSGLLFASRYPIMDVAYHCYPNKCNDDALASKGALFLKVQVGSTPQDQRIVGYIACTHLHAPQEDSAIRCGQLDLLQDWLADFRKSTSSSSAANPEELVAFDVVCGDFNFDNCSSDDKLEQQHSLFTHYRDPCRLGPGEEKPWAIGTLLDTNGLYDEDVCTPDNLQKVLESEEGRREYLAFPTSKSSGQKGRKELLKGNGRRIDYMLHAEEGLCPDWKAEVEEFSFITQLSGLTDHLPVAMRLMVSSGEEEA
# PROCEDURE TEXT: nSMase2 inhibition (Tables 1A, 1B)
# Assay type: biochemical
# PARTICULARS: nSMase2 inhibitors of formula (I), Table 1A; read-out: IC50
Reported IC50 values for the following compounds.

Worked cases, IC50 given:
[
  {
    "SMILES RECORD": "COc1cccc(-c2c(C)nc3c(N4CC[C@@H](NC(C)=O)C4)cc(Cl)nn23)c1",
    "IC50": "> 100 µM"
  },
  {
    "SMILES RECORD": "COc1ccc(-c2c(C)nc3c(N4CC[C@@H](NC(C)=O)C4)cc(Cl)nn23)cc1",
    "IC50": "> 100 µM"
  },
  {
    "SMILES RECORD": "COc1cc(N2CC[C@@H](NC(C)=O)C2)c2nc(C)c(-c3ccc(OC)c(OC)c3)n2n1",
    "IC50": "> 1 µM"
  },
  {
    "SMILES RECORD": "CC(=O)N[C@@H]1CCN(c2cc(Cl)nn3cc(C)nc23)C1",
    "IC50": "> 100 µM"
  },
  {
    "SMILES RECORD": "CC(=O)Nc1cccc(-c2c(C)nc3c(N4CC[C@@H](NC(C)=O)C4)cc(Cl)nn23)c1",
    "IC50": "> 100 µM"
  },
  {
    "SMILES RECORD": "COc1cccc(-c2c(C)nc3c(N4CC[C@@H](NC(C)=O)C4)cc(C)nn23)c1",
    "IC50": "> 1 µM"
  }
]

For nSMase2 (Homo sapiens (Human)), provide IC50 of `CC(=O)N[C@@H]1CCN(c2cc(C)nn3c(C)c(C)nc23)C1` please. > 1 µM

For nSMase2 (Homo sapiens (Human)), provide IC50 of `CC(=O)N[C@@H]1CCN(c2ccnn3cc(C)nc23)C1` please. > 10 µM

For nSMase2 (Homo sapiens (Human)), provide IC50 of `CC(=O)N[C@@H]1CCN(c2cc(C)nn3c(I)c(C)nc23)C1` please. > 10 µM

Ref: patent US20240115574A1
